# studyTarget: Neuropeptides B/W receptor type 1 (Homo sapiens) (UniProt P48145)
# procedureDetails: GPR7 antagonist potency, late-stage follow-up, cell-based, fluorescence, dose response, set 2 (AID 504868)
# appliedConditions: GPR7-expressing cells, fluorescence antagonist readout; run 3
Active and inactive are the calls of the source. The rule behind the calls is not given here.
Could you please pick one outcome from this set? active, inactive

Recorded results for 2 compounds are shown here.
Cc1ccc(-n2ncc(Cl)c(Oc3ccc(C(F)(F)F)cc3)c2=O)cc1: active
COc1ccc(Oc2c(Cl)cnn(-c3ccc(C)cc3)c2=O)cc1: active

[Q] Outcome logged for `COc1ccc(Oc2c(-c3ccccc3)cnn(-c3ccc(C)cc3)c2=O)cc1` in this assay:
[A] inactive

[Q] Test call for this compound, please: `Cc1ccc(-n2ncc(Cl)c(Oc3ccc(CO)cc3)c2=O)cc1`
[A] active

[Q] Tell me the assay call for `Cc1ccc(-n2ncc(Cl)c(Oc3ccc(OC(F)(F)F)cc3)c2=O)cc1` please.
[A] active
